Molecular target: T1, human SEMA4A expressed on cells (UniProt ID Q9H3S1, isoform 1) (human, UniProt Q9H3S1 33-761)
T1 sequence: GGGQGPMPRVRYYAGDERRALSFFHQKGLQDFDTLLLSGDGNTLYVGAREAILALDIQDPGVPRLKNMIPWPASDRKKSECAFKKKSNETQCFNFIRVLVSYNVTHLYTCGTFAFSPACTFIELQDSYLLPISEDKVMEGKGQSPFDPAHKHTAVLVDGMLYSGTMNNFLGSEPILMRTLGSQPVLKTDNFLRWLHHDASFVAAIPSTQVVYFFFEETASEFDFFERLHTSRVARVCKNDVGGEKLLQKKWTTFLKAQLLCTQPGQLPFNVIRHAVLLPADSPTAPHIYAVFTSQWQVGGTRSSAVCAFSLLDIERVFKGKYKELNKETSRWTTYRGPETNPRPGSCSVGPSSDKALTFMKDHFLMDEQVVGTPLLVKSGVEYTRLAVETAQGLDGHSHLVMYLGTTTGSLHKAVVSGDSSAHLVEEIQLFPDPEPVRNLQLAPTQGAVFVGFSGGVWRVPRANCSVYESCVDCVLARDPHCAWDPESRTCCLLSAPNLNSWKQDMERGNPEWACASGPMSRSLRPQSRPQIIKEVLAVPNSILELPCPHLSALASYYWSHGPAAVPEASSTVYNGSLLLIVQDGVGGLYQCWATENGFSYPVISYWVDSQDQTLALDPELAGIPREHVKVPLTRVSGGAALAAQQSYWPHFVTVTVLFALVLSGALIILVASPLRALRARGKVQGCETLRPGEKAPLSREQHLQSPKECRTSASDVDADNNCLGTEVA
Experiment: cell-based or functional assay
Catalogue of binders with associated Fold-Change at 6 hours (10 nM), Fab-pHast internalisation
The response must be a number in fold with no trailing unit.

binder	recordedResult
5Hg1-5Lg1 human Alya IgG1 conjugated to McMMAF (antibody, V domains shown, McMMAF on the engineered cysteines 239iCys and S442C (EU numbering) of the heavy constant region, Antibody-drug conjugate; human IgG1 Alya constant; also called 5Hg1/5Lg1-McMMAF) VH: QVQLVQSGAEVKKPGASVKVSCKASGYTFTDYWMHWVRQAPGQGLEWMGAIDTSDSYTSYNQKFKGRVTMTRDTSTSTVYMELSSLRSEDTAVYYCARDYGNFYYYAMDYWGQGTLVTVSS VL: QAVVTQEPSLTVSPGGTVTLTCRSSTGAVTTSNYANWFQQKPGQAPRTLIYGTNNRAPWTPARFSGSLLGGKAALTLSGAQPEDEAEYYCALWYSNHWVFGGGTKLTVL	121
C0120906 human Alya IgG1 conjugated to McMMAF (antibody, V domains shown, McMMAF on the engineered cysteines 239iCys and S442C (EU numbering) of the heavy constant region, Antibody-drug conjugate; human IgG1 Alya constant; also called C0120906-McMMAF) VH: EVQLVQSGPEVKKPGASVKISCKASGYKLNDPGVHGVSWVRQAPGQGLEWMGWISTLNGDTRYAQKFQGRVTMATDSSTSTIYMDLRSLKSDDTALYYCARDDYTAIFDFWGRGTLVTVSS VL: QSVLTQPPSVSVAPGQTASITCGGSNIGSQSVHWYQQKPGQAPVLVVYDDSDRPSGIPERFSGSKSGNTASLILSRVEAGDEADYYCQVWDSSTDHHVFGTGTKVTVL	116
C0120903 human Alya IgG1 conjugated to McMMAF (antibody, V domains shown, McMMAF on the engineered cysteines 239iCys and S442C (EU numbering) of the heavy constant region, Antibody-drug conjugate; human IgG1 Alya constant; also called C0120903-McMMAF) VH: EVQLVQSGAEVKKPGSSMKVSCKASGGTFNSYTINWVRQAPGQGLEWVGGFIPIFGTADYAQKFHGRVAITADESMSTAYMELSSLRSEDTAVYYCARAPLGSEPFDYWGQGTMVTVSS VL: SYVLTQPPSVSVAPGQTARITCGGNNIGSKSVHWYQQKPGQAPVLVVYDDSDRPSGIPERFSGSNSGNTATLTISRVEAGDEADYYCQVWDSSSDHLVFGGGTKLTVL	118
C0120914 human Alya IgG1 conjugated to McMMAF (antibody, V domains shown, McMMAF on the engineered cysteines 239iCys and S442C (EU numbering) of the heavy constant region, Antibody-drug conjugate; human IgG1 Alya constant; also called C0120914-McMMAF) VH: QVQLQESGPGLVKPSETLSLTCTVSGGSVSSGRYDWSWIRQPPGKGLEWIGHIYYTGITDYNPSLRSRVTISADKPKNQFSLKLNSVTAADTAVYYCARGPFFDPWGQGTMVTVSS VL: QSVLTQPPSVSVAPGQTASLTCGANNIGSKSVQWYQQKPGQAPVLVVYDGSDRPSGIPDRFSGSSSENTATLTISRVEAGDEADYYCQLWDSVTDRPVFGGGTKVTVL	112
5Hg2-5Lg2 human Alya IgG1 conjugated to McMMAF (antibody, V domains shown, McMMAF on the engineered cysteines 239iCys and S442C (EU numbering) of the heavy constant region, Antibody-drug conjugate; human IgG1 Alya constant; also called 5Hg2/5Lg2-McMMAF) VH: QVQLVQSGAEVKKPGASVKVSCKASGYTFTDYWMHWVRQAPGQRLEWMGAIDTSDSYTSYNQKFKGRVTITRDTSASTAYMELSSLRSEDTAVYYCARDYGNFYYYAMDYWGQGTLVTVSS VL: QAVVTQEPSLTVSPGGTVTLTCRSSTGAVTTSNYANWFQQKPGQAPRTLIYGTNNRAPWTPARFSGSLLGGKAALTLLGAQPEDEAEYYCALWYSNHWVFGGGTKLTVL	103

// next item, Fold-Change at 6 hours (10 nM), Fab-pHast internalisation requested
input: Entry 5Hg1-5Lg2 human Alya IgG1 conjugated to McMMAF (antibody, V domains shown, McMMAF on the engineered cysteines 239iCys and S442C (EU numbering) of the heavy constant region, Antibody-drug conjugate; human IgG1 Alya constant) VH: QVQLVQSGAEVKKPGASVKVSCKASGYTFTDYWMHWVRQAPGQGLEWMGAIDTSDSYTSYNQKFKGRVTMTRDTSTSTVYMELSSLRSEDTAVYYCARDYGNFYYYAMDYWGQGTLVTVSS VL: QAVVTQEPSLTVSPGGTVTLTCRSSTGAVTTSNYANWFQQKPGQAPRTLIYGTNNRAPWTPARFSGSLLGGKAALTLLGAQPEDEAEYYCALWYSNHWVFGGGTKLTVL has what Fold-Change at 6 hours (10 nM), Fab-pHast internalisation?
output: 150

Reference source: patent US20250152729A1
